- System: Staphylococcus aureus
- protocol.text: Growth inhibition of Staphylococcus aureus NCIM 2602 at 10 ug/ml measured after 12 hrs relative to control
- Format: functional
- condition.parameters: NCIM 2602, 12 h, read-out: GI
Quick list: inhibition of growth at 10 µg/mL per entry.

input.smiles: Cc1nc(-c2ccc(F)cc2)oc1-c1csc(-c2ccc(F)c(Cl)c2)n1
target.or.test.system: Staphylococcus aureus
inhibition of growth at 10 µg/mL / %: 55.2

input.smiles: Cc1nc(-c2ccccc2)oc1-c1csc(-c2ccc(F)cc2)n1
target.or.test.system: Staphylococcus aureus
inhibition of growth at 10 µg/mL / %: 41.7

input.smiles: Cc1nc(-c2ccccc2)oc1-c1csc(Cc2ccc(Cl)cc2)n1
target.or.test.system: Staphylococcus aureus
inhibition of growth at 10 µg/mL / %: 85.6

input.smiles: Cc1nc(-c2ccccc2)oc1-c1csc(-c2ccc(Cl)cc2)n1
target.or.test.system: Staphylococcus aureus
inhibition of growth at 10 µg/mL / %: 22.3

input.smiles: Cc1ccc(-c2nc(-c3oc(-c4ccccc4)nc3C)cs2)cc1
target.or.test.system: Staphylococcus aureus
inhibition of growth at 10 µg/mL / %: 14.9
